Reference for the values: patent US7879876B2

Target: collagenase (MMP-1) (Homo sapiens, UniProt P03956)
Sequence (P03956 100-469): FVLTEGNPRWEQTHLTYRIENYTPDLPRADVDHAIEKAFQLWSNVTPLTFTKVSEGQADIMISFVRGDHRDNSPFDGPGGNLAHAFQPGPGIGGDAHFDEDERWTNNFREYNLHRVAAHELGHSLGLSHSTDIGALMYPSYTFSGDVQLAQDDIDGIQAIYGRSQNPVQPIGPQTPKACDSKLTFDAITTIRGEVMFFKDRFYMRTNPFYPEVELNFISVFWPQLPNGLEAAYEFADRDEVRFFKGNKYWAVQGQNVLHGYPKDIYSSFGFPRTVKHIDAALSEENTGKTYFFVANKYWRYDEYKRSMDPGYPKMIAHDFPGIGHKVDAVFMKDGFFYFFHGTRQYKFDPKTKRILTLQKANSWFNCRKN
Test: MMP-1 enzyme inhibition assay (coumarin-labelled peptide substrate)
Format: biochemical
Details: @ 0.1 μM; read-out: percentage inhibition MMP1
In this section we review reported inhibition at 0.1 µM values for a set of compounds.
Express the reported value numerically, then name its unit.

# annotated cases, reported inhibition at 0.1 µM shown
compound	result
O=CN(O)C(COCc1ccccc1)CS(=O)(=O)N1CCc2ccc(Cl)cc2C1 (centres unmarked)	4%
CC(C)(C)CC(CS(=O)(=O)N1Cc2ccc(F)cc2C1)N(O)C=O (centres unmarked)	17%
CC1(C)OC[C@H](C(CS(=O)(=O)N2Cc3ccccc3C2)N(O)C=O)O1 (some centres unmarked)	5%
O=CN(O)[C@H](CS(=O)(=O)N1Cc2ccc(F)cc2C1)[C@H]1CCCO1	22%

The compound listed as CC(C)CC(CS(=O)(=O)N1CCc2ccc(Br)cc2C1)N(O)C=O (centres unmarked) has a reported inhibition at 0.1 µM of 7%

###

This document collects log10(IC50) values reported for metalloelastase (MMP-12) (Homo sapiens).
Give log10 of IC50, with IC50 taken in nM.

# annotated cases, reported log10(IC50) shown
molecule	tested system	log10(IC50)
O=CN(O)C(CS(=O)(=O)N1CCc2ccc(-c3cccc(O)c3)cc2C1)C1CCCC1 (stereo not drawn) [Example 70]	metalloelastase (MMP-12) (Homo sapiens)	1.61
COc1cc2c(cc1OC)CN(S(=O)(=O)CC(C1CC1)N(O)C=O)CC2 (stereo not drawn) [Example 84]	metalloelastase (MMP-12) (Homo sapiens)	2.56
CCC(CC)C(CS(=O)(=O)N1CCc2ccc(Br)cc2C1)N(O)C=O (stereo not drawn) [Example 36]	metalloelastase (MMP-12) (Homo sapiens)	0.76
CC(C)CC(CS(=O)(=O)N1CCc2ccc(Br)cc2C1)N(O)C=O (stereo not drawn) [Example 55]	metalloelastase (MMP-12) (Homo sapiens)	0.78
CCC(CC)C(CS(=O)(=O)N1CCc2ccc(OC)cc2C1)N(O)C=O (stereo not drawn) [Example 38]	metalloelastase (MMP-12) (Homo sapiens)	0.86
O=CN(O)C(CS(=O)(=O)N1CCc2ccc(F)cc2C1)C1CCCC1 (stereo not drawn) [Example 60]	metalloelastase (MMP-12) (Homo sapiens)	1.84

The molecule listed as CC(C)(C)OC(=O)N1CCC[C@@H]1[C@@H](CS(=O)(=O)N1CCc2cc(Cl)c(Cl)cc2C1)N(O)C=O (racemic) [Example 44] has a reported log10(IC50) of 0.85

The molecule listed as O=CN(O)C1(CS(=O)(=O)N2CCc3ccc(Cl)cc3C2)CCCC1 [Example 62] has a reported log10(IC50) of 1.56

###

In this section we review reported IC50 values for a set of molecules.
molecular target: human ADAM17 (TACE) (Homo sapiens)
Sequence (P78536 215-824): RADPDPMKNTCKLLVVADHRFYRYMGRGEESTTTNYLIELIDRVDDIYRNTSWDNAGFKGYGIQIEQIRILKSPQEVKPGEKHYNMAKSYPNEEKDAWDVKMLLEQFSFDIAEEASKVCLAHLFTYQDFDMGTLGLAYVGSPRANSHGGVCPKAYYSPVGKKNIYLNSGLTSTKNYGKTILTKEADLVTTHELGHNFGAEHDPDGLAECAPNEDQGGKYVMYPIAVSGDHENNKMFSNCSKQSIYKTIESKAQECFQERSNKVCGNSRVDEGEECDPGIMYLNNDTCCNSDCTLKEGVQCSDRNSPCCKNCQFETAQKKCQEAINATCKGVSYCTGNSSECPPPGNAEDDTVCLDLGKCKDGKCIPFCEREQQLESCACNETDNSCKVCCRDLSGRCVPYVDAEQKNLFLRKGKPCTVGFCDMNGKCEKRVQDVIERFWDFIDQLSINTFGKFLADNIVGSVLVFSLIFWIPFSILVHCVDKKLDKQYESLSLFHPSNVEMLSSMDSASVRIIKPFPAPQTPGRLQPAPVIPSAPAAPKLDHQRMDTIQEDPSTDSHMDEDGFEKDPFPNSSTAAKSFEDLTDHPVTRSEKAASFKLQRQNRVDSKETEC

human ADAM17 (TACE) (Homo sapiens) data for O=CN(O)C(CS(=O)(=O)N1CCc2ccc(Br)cc2C1)C1CCCC1 (stereo not shown) ; its IC50: 91 nM

human ADAM17 (TACE) (Homo sapiens) data for O=CN(O)C(COCc1ccccc1)CS(=O)(=O)N1CCc2ccc(C(F)(F)F)cc2C1 (stereo not shown) ; its IC50: > 5000 nM

human ADAM17 (TACE) (Homo sapiens) data for O=CN(O)C(CS(=O)(=O)N1CCc2cc(C(F)(F)F)ccc2C1)C1CCCC1 (stereo not shown) ; its IC50: 1200 nM

human ADAM17 (TACE) (Homo sapiens) data for CC(C)c1ccc2c(c1)CCN(S(=O)(=O)CC([C@H]1COC(C)(C)O1)N(O)C=O)C2 (stereo partly shown) ; its IC50: 640 nM

human ADAM17 (TACE) (Homo sapiens) data for CCC(CC)C(CS(=O)(=O)N1CCc2ccc(OC)cc2C1)N(O)C=O (stereo not shown) ; its IC50: 276 nM

human ADAM17 (TACE) (Homo sapiens) data for COc1cc2c(cc1OC)CN(S(=O)(=O)CC([C@H](O)CO)N(O)C=O)CC2 (stereo partly shown) ; its IC50: > 5000 nM

human ADAM17 (TACE) (Homo sapiens) data for CCC(CC)C(CS(=O)(=O)N1CCc2ccc(Br)cc2C1)N(O)C=O (stereo not shown) ; its IC50: 228 nM

human ADAM17 (TACE) (Homo sapiens) data for CCC(CC)C(CS(=O)(=O)N1CCc2cc(C(F)(F)F)ccc2C1)N(O)C=O (stereo not shown) ; its IC50: 1090 nM

human ADAM17 (TACE) (Homo sapiens) data for O=CN(O)C(COCc1ccccc1)CS(=O)(=O)N1CCc2ccc(Cl)cc2C1 (stereo not shown) ; its IC50: 56 nM

human ADAM17 (TACE) (Homo sapiens) data for O=CN(O)C(CS(=O)(=O)N1CCc2ccc(C(F)(F)F)cc2C1)C1CC1 (stereo not shown) ; its IC50: > 5000 nM

human ADAM17 (TACE) (Homo sapiens) data for O=CN(O)C(CS(=O)(=O)N1Cc2ccccc2C1)C1CC1 (stereo not shown) ; its IC50: 683 nM

human ADAM17 (TACE) (Homo sapiens) data for CC(C)c1ccc2c(c1)CCN(S(=O)(=O)CC(C1CC1)N(O)C=O)C2 (stereo not shown) ; its IC50: > 5000 nM

###

molecular target: UniProt:P50281; test: MMP-14 enzyme inhibition assay (coumarin-labelled peptide substrate); type: biochemical; conditions: @ 0.1 μM; read-out: percentage inhibition MMP14
In this section we review reported inhibition at 0.1 µM values for a set of compounds.
Answer with a number only, understood to be in %.

The compound listed as CCC(CC)C(CS(=O)(=O)N1CCc2ccc(Br)cc2C1)N(O)C=O (centres unmarked) [Example 36] has a reported inhibition at 0.1 µM of 3

The compound listed as CC(C)(C)OC(=O)N1CCC[C@@H]1[C@H](CS(=O)(=O)N1CCc2cc(Cl)c(Cl)cc2C1)N(O)C=O (racemic) [Example 46] has a reported inhibition at 0.1 µM of 19

The compound listed as CCC(CC)C(CS(=O)(=O)N1CCc2cc(Cl)c(Cl)cc2C1)N(O)C=O (centres unmarked) [Example 34] has a reported inhibition at 0.1 µM of 3

The compound listed as CC1(C)OC[C@H](C(CS(=O)(=O)N2CCc3ccc(Cl)cc3C2)N(O)C=O)O1 (some centres unmarked) [Example 19] has a reported inhibition at 0.1 µM of 10

The compound listed as CC(C)CC(CS(=O)(=O)N1CCc2ccc(Br)cc2C1)N(O)C=O (centres unmarked) [Example 55] has a reported inhibition at 0.1 µM of 19

###

molecular target: MMP-14 (Homo sapiens); assay: MMP-14 enzyme inhibition assay (coumarin-labelled peptide substrate); type: biochemical; settings: @ 5 μM; read-out: percentage inhibition MMP14
measurement type: inhibition at 5 µM (%)
Answer with a number only, understood to be in %.

The compound listed as CC1(C)OC[C@H](C(CS(=O)(=O)N2CCc3ccc(C(F)(F)F)cc3C2)N(O)C=O)O1 (stereo partly drawn) has a reported inhibition at 5 µM of 62

The compound listed as O=CN(O)C(CCO)CS(=O)(=O)N1CCc2ccc(Cl)cc2C1 (stereo not drawn) has a reported inhibition at 5 µM of 41

The compound listed as CC(C)C(CS(=O)(=O)N1CCc2ccc(-c3ccc(F)cc3)cc2C1)N(O)C=O (stereo not drawn) has a reported inhibition at 5 µM of 83

The compound listed as CCCCCC(C)(C)C(CS(=O)(=O)N1CCc2cc(C(F)(F)F)ccc2C1)N(O)C=O (stereo not drawn) has a reported inhibition at 5 µM of 9

The compound listed as O=CN(O)C(CS(=O)(=O)N1CCc2cc(C(F)(F)F)ccc2C1)[C@H]1CCCO1 (stereo partly drawn) has a reported inhibition at 5 µM of 79

The compound listed as O=CN(O)C(CS(=O)(=O)N1CCc2ccccc2C1)c1cncnc1 (stereo not drawn) has a reported inhibition at 5 µM of 61

The compound listed as O=CN(O)C(CS(=O)(=O)N1CCc2ccccc2C1)c1cccnc1 (stereo not drawn) has a reported inhibition at 5 µM of 36

The compound listed as `O=CN(O)[C@H](CS(=O)(=O)N1CCc2ccc(Cl)cc2C1)[C@H]1CCCO1` has a reported inhibition at 5 µM of 72

The compound listed as CC(C)C(CS(=O)(=O)N1CCc2cc(Cl)c(Cl)cc2C1)N(O)C=O (stereo not drawn) has a reported inhibition at 5 µM of 87
